# assay.target: pI73R (African swine fever virus (ASFV-GZ, …, UniProt A0A2X0RU36 1-72))
# protocol.text: BLI
Reported Kd values for a set of binders
Field: numeric (nM). Do not append units.

Answered cases to consult:
binder | unit.label | Kd
GCUUUGAUUUCGUGCAUCUAUGGAG (ssRNA) [ssRNA] | nM | 37.5
dsRNA (dsRNA) RNA 1: GCUUUGAUUUCGUGCAUCUAUGGAG RNA 2: CUCCAUAGAUGCACGAAAUCAAAGC | nM | 70
TTGACGAGGAAGTGTCTGTT (ssDNA) [ssDNA] | nM | 113

Now, please, on to the next binder.
For the binder dsDNA (dsDNA) DNA 1: TTGACGAGGAAGTGTCTGTT DNA 2: AACAGACACTTCCTCGTCAA , give its measured Kd value.
100
